- Assayed system: T1, B-cat-Halo (beta-catenin HaloTag NanoBRET construct expressed in HEK293 cells) (UniProt P35222 1-781, HaloTag NanoBRET 618 Ligand bound to the HaloTag)
- T1 sequence (looked up): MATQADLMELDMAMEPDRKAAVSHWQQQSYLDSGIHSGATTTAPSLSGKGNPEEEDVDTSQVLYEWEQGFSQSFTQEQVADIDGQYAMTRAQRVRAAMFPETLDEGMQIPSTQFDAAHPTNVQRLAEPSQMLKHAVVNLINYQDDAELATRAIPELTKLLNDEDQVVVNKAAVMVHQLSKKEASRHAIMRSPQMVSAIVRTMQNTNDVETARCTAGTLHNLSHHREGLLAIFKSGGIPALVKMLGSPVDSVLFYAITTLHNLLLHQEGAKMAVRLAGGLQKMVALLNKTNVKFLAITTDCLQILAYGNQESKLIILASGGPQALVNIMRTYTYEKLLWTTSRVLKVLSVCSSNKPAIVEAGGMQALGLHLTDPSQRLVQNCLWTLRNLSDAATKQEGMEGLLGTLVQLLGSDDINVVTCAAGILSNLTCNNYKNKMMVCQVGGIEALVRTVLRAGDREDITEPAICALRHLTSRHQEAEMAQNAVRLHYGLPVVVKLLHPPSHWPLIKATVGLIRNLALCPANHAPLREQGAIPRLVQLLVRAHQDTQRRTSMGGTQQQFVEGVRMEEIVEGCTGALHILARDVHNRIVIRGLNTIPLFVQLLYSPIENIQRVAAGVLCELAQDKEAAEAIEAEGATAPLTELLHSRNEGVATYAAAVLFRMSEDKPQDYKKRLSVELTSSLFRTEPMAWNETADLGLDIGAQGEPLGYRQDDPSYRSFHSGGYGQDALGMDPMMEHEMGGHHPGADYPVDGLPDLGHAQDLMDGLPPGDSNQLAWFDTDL
- Assay overview: cell-based or functional assay
Starred links: 1 amine or outer side, 2 acyl side, 3 side chain; linkers in the order of their positions; H or OH if unused. Positions of bridges follow the written chain, without caps; N, C: chain ends. Non-standard residues stand in square brackets, D forms with d. Primed or numbered codes have the meaning given here. PyrS2″ = (S)-3-amino-1-((pent-4-en-1-yloxy)carbonyl)pyrrolidine-3-carboxylic acid (stapling residue), C=CCCCOC(=O)N1CC[C@@](N[*:1])(C(=O)[*:2])C1; B5(5) = 2,2-bis(4-pentenyl)glycine, 2-amino-2-(pent-4-en-1-yl)hept-6-enoic acid (stitching residue), C=CCCCC(CCCC=C)(N[*:1])C(=O)[*:2]; PyrS2 = (S)-3-amino-1-((pent-4-en-1-yloxy)carbonyl)pyrrolidine-3-carboxylic acid, C=CCCCOC(=O)N1CC[C@@](N[*:1])(C(=O)[*:2])C1; B5(27) = 2-amino-2-(pent-4-en-1-yl)hept-6-enoic acid (two alkene side-chain arms), C=CCCCC(CCCC=C)(N[*:1])C(=O)[*:2]; F2PipAbu = (S)-2-amino-4-(4,4-difluoropiperidin-1-yl)butanoic acid, O=C([C@H](CCN1CCC(F)(F)CC1)N[*:1])[*:2]; MorphAsn = (S)-2-amino-4-morpholino-4-oxobutanoic acid, O=C(C[C@H](N[*:1])C(=O)[*:2])N1CCOCC1; Bta = N[C@@H](Cc1csc2ccccc12)C(=O)O; αAllylPro = C=CC[C@@]1(C(=O)O)CCCN1; tBuAla = CC(C)(C)C[C@H](N)C(=O)O; 3Thi = N[C@@H](Cc1ccsc1)C(=O)O; Cha = N[C@@H](CC1CCCCC1)C(=O)O; S8 = C=CCCCCCC[C@](C)(N)C(=O)O; hSer = N[C@@H](CCO)C(=O)O; Nle = CCCC[C@H](N)C(=O)O

Binder	NanoBRET Abs IC50
Ac-[αAllylPro]DS[B5(5)]DEAAFQ[S8]F[Bta]Q-NH2 (staple 1-4, 4-11, Stapled peptide composition; It has the same description as I-1526 and is the staple isomer composition of the later eluting HPLC peak) [I-1527: Ac-PL3-Asp-Ser-B5-Asp-Glu-Ala-Ala-Phe-Gln-S8-Phe-BztA-Gln-NH2]	30.3 µM
Ac-[αAllylPro]D[tBuAla][B5(27)]DDA[F2PipAbu]FL[PyrS2][3Thi][Bta]Q-NH2 (staple 1-4, 4-11) [I-1505: Ac-PL3-Asp-Npg-B5-Asp-Asp-Ala-F2PipAbu-Phe-Leu-PyrS2-3Thi-BztA-Gln-NH2]	> 20 µM
Ac-[αAllylPro]D[Nle][B5(5)]DEAAF[hSer][S8]F[Bta]Q-NH2 (staple 1-4, 4-11) [I-1525: Ac-PL3-Asp-nLeu-B5-Asp-Glu-Ala-Ala-Phe-Hse-S8-Phe-BztA-Gln-NH2]	10.8 µM
Ac-[αAllylPro]D[Cha][B5(5)]DDAAFL[PyrS2″][3Thi][Bta]Q-NH2 (staple 1-4, 4-11) [I-1519: Ac-PL3-Asp-Cha-B5-Asp-Asp-Ala-Ala-Phe-Leu-PyrS2-3Thi-BztA-Gln-NH2]	12.8 µM
Ac-[αAllylPro]D[Nle][B5(5)]DEAAFQ[S8]F[Bta]Q-NH2 (staple 1-4, 4-11; also: staple isomer, earlier eluting HPLC peak) [I-1521: Ac-PL3-Asp-nLeu-B5-Asp-Glu-Ala-Ala-Phe-Gln-S8-Phe-BztA-Gln-NH2]	6 µM
Ac-[αAllylPro]D[tBuAla][B5(27)]DDA[MorphAsn]FL[PyrS2][3Thi][Bta]Q-NH2 (staple 1-4, 4-11) [I-1507: Ac-PL3-Asp-Npg-B5-Asp-Asp-Ala-MorphAsn-Phe-Leu-PyrS2-3Thi-BztA-Gln-NH2]	> 20 µM
Ac-[αAllylPro]DY[B5(27)]DDAAFL[PyrS2][3Thi][Bta]Q-NH2 (staple 1-4, 4-11) [I-1511: Ac-PL3-Asp-Tyr-B5-Asp-Asp-Ala-Ala-Phe-Leu-PyrS2-3Thi-BztA-Gln-NH2]	> 20 µM

Value source: patent US20240116985A1
